Where do the numbers come from? From ChEMBL document CHEMBL3039007.

# TESTED_ON: Solute carrier organic anion transporter family member 1B1 (Homo sapiens)
# Sequence (Q9Y6L6 whole entry): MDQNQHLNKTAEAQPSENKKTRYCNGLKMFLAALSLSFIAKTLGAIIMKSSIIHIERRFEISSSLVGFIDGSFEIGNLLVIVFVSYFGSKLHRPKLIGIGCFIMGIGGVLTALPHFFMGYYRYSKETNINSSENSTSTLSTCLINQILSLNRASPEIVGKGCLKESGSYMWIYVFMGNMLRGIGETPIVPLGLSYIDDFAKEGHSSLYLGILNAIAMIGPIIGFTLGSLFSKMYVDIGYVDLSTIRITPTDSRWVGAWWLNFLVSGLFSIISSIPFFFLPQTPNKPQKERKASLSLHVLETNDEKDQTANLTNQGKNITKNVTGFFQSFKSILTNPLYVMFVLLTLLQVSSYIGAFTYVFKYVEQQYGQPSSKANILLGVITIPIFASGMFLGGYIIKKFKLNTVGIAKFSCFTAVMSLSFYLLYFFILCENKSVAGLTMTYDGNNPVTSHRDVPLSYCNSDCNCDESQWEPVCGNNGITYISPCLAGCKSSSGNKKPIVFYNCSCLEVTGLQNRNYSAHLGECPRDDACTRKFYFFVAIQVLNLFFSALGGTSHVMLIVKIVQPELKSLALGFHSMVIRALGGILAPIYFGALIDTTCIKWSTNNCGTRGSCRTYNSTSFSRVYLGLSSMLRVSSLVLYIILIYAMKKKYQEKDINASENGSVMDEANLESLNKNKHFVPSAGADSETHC
# EXPERIMENTAL_PARAMETERS: chinese hamster, cho, 10 µM
Measured residual activity accompanies every entry in the list below.
VALUE_TYPE: residual activity (%)

{"MOLECULE": "NCC(O)CC(=O)O (stereo not drawn) [GAMMA-AMINO-BETA-HYDROXYBUTYRIC ACID]", "MEASURED_RESULT": 120.5}
{"MOLECULE": "C=C1CCC(=O)C(C)CCC2C1CC2(C)C (centres undefined) [DIHYDROCARYOPHYLLEN-5-ONE]", "MEASURED_RESULT": 24.21}
{"MOLECULE": "COC(=O)C1=C(C)NC(C)=C(C(=O)OC)C1c1ccccc1[N+](=O)[O-] [NIFEDIPINE]", "MEASURED_RESULT": 75.83}
{"MOLECULE": "CN1CCCCC1c1ccc(-c2cccnc2)nc1.Cl (centres undefined) [ANABASAMINE HYDROCHLORIDE]", "MEASURED_RESULT": 100}
{"MOLECULE": "CCCCCC(=O)O[C@]1(C(C)=O)CC[C@H]2[C@@H]3CCC4=CC(=O)CC[C@]4(C)[C@H]3CC[C@@]21C [HYDROXYPROGESTERONE CAPROATE]", "MEASURED_RESULT": 40.59}
{"MOLECULE": "Cc1cc(=O)n(-c2ccccc2)n1C [ANTIPYRINE]", "MEASURED_RESULT": 79.71}
{"MOLECULE": "O=C(Cc1cccs1)N[C@@H]1C(=O)N2C(C(=O)[O-])=C(C[n+]3ccccc3)CS[C@H]12 [CEPHALORIDINE]", "MEASURED_RESULT": 14.22}
{"MOLECULE": "COc1ccc(C(c2ccc(OC)cc2)C(Cl)(Cl)Cl)cc1 [METHOXYCHLOR]", "MEASURED_RESULT": 114}
{"MOLECULE": "CN1Cc2c(ccc3c2OCO3)C2C(O)Cc3cc4c(cc3C21)OCO4 (stereo not drawn) [CHELIDONINE (+)]", "MEASURED_RESULT": 59.5}
{"MOLECULE": "Cc1ccc2c(c1)CC[C@H]1CC(=O)CC[C@]21C", "MEASURED_RESULT": 162.9}
{"MOLECULE": "CN1CCN(C(c2ccccc2)c2ccccc2)CC1 [CYCLIZINE]", "MEASURED_RESULT": 88.13}
{"MOLECULE": "O=c1oc2cc(O)ccc2s1 [TIOXOLONE]", "MEASURED_RESULT": 67.3}
{"MOLECULE": "Cl.Clc1cccc(Cl)c1NC1=NCCN1 [CLONIDINE HYDROCHLORIDE]", "MEASURED_RESULT": 73}
{"MOLECULE": "Cc1c(NC(=O)c2cccnc2)c(=O)n(-c2ccccc2)n1C [NIFENAZONE]", "MEASURED_RESULT": 96.39}
